assay_overview: Cellular viability qHTS for adrenocortical cancer (ACC) cell line NCI-H295R (AID 1963990); further: nearly all actives have a fitted effect of over 60% in size
condition_parameters: CellTiter-Glo ATP luminescence, 48 h; series mostly up to 46.1 µM
Records with an inconclusive call do not appear. The source made the active and inactive calls. The call rests on the fitted dose curve; in most records, active means well fitted cell-killing curve with a large enough effect; inconclusive means small, poorly fitted or top-dose-only effect; inactive means flat fitted curve, though single readings scatter.
Respond using exactly one of the listed classes: Y (active), N (inactive)

Illustrative cases are given below, each with its answer.
COC(=O)C1=C(C)NC(C)=C(C(=O)OC)C1c1ccccc1[N+](=O)[O-] :: Y
OCCN1CCN(CCCN2c3ccccc3Sc3ccc(Cl)cc32)CC1 :: Y
CC(=O)c1ccc2c(c1)c1cc(C(C)=O)ccc1n2CCNC(C)C :: Y
Nc1ncnc2c1c(-c1cccc(OCc3ccccc3)c1)cn2C1CC(CN2CCCC2)C1 (stereo not given) :: Y
CCS(=O)(=O)CCn1c([N+](=O)[O-])cnc1C :: Y

input: Assay result, entry COc1cc(OC)cc(N(CCNC(C)C)c2ccc3ncc(-c4cnn(C)c4)nc3c2)c1 — outcome?
output: Y

input: Assay result, entry N#C[C@@H]1C[C@@H]2C[C@@H]2N1C(=O)[C@@H](N)C12CC3CC(CC(O)(C3)C1)C2 — outcome?
output: N

---

assay_overview: Quantitative highthroughput screen to assess conditional lethalithy of P12 Ichikawa cells grown in Human Plasma-Like Medium with dialyzed fetal bovine serum (HPLM+ds) (AID 1963879); further: nearly all actives have a fitted effect of over 35% in size
condition_parameters: ATP luminescence, 48 h; viability; series mostly up to 45.8 µM
Inconclusive results are not listed. Active and inactive are the calls of the source. Calls follow the shape of the dose curve; as a rule, active = well fitted cell-killing curve with a large enough effect; inconclusive = small, poorly fitted or top-dose-only effect; inactive = flat fitted curve, though single readings scatter.
Respond using exactly one of the listed classes: True (active), False (inactive)

Illustrative cases are given below, each with its answer.
CCC(=O)NCC[C@@H]1CCc2ccc3c(c21)CCO3 :: False
O=c1c(O)c(-c2cc(O)c(O)c(O)c2)oc2cc(O)cc(O)c12 :: False
CC1(COc2ccc3c(c2)ncn3-c2ccc3cccc(N4CCC(N)CC4)c3n2)COC1 :: True
CN(CC(=O)N(Cc1ccc(C2CCCCC2)cc1)c1ccc(C(=O)O)c(O)c1)S(=O)(=O)c1c(F)c(F)c(F)c(F)c1F :: True

input: Assay result, entry O=C(C=CC#Cc1cccc(NS(=O)(=O)c2ccccc2)c1)NO — outcome?
output: True

---

assay_overview: Cellular viability qHTS for adrenocortical cancer (ACC) cell line SW-13 (AID 1963989);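 further: cells grown in serum-free medium with ITS supplement; on the % scale 0 is the no-effect control and ±100 the full control effect; nearly all actives have a fitted effect of over 65% in size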
condition_parameters: SW-13 ACC cells viability, CellTiter-Glo, 48 h; active compounds read low
Inconclusive results are not listed.
measured_metric: activity (max response) (%)
Give the value in % but do not write % after it.

CC[C@@H]1[C@H](F)C(=O)N[C@@H]1COc1nccc2cc(C(N)=O)c(OC)cc12 :: -21.5
C=CCN1C[C@H](C(=O)N(CCCN(C)C)C(=O)NCC)C[C@@H]2c3cccc4[nH]cc(c34)C[C@H]21 :: 3.88
O=C(Nc1cc(Cl)cc2c1[nH]c1cnccc12)c1cccnc1 :: 7.23
Nc1ncnc2c1ncn2[C@@H]1O[C@H](COP(=O)(O)O)[C@@H](O)[C@H]1O :: 5.55

Looking up CNC(=O)c1c(I)c(NC(C)=O)c(I)c(C(=O)O)c1I , I found its activity (max response) recorded as 10

Looking up COc1ccc(CC2c3cc(OC)c(OC)cc3CC[N+]2(C)CCC(=O)OCCCCCOC(=O)CC[N+]2(C)CCc3cc(OC)c(OC)cc3C2Cc2ccc(OC)c(OC)c2)cc1OC (stereo not drawn) , I found its activity (max response) recorded as -11.7

Looking up C=Cc1c(C)c2cc3[nH]c(cc4nc(cc5nc(cc1[nH]2)C(C)=C5CCC(=O)O)C(CCC(=O)O)=C4C)c(C)c3C=C , I found its activity (max response) recorded as -8.14

Looking up CC1(C)CN(C(=O)c2ccc(-c3cccc4nc(NC(=O)C5CC5)nn34)cc2)C1 , I found its activity (max response) recorded as 2.66

Reference for the values: PubChem BioAssay (NCATS)
